assay: Volume of distribution in rat at 1 mg/kg, iv and 2 mg/kg, po; format: ADME, organism-based; settings: in vivo
valueType: Vd (L/kg)

Answered cases to consult:
In [3]: df
Out[3]:
                                   molecule  valuemeasured
0  CCCC(Cc1ccc(C(=O)NCCC(=O)O)cc1)C(=O)c1cc2cc(Cl)ccc2n1-c1ccc(Cl)c(C(F)(F)F)c1 (single isomer, unassigned)           0.84
1  CCC[C@@H](Cc1ccc(C(=O)NCCC(=O)O)cc1)C(=O)c1cc2cc(Cl)ccc2n1-c1cccc(C(F)(F)F)n1            0.9

A: CCC[C@@H](Cc1ccc(C(=O)NCCC(=O)O)cc1)C(=O)c1cc2cc(Cl)ccc2n1-c1cccc(C(F)(F)F)c1
B: CCCCC[C@@H](Cc1ccc(C(=O)NCCC(=O)O)cc1)C(=O)c1cc2cc(Cl)ccc2n1-c1cccc(C(F)(F)F)c1
// query # min-compare on Vd between A and B Mark your selection by writing its label.
// result B
(B: 0.98 L/kg, A: 1.5 L/kg)

Data origin, for the record: ChEMBL document CHEMBL1921704
